System: W2 (chloroquin resistant) strain of P. falciparum
Test: in vitro antiplasmodial activity, W2 clone
Type: cell-based, Plasmodium falciparum
Details: Plasmodium falciparum, W2, 72 h, read-out: W2-clone IC50
endpointName: IC50

Observe how each entry below is paired with its result.
compound	IC50
C[C@@]12C[C@@H](O)C[C@]3(C)C4=CC(=O)OC[C@]45O[C@@H]5[C@@H](OC1=O)C23 (some centres unmarked)	0.82 µg/mL
C=C1C(O)CC2[C@](C)(CCC[C@]2(C)C(=O)O)C1CC(=O)O (some centres unmarked)	> 4.76 µg/mL
C[C@@]12C[C@@H](O)C[C@]3(C)C4=CC(=O)OCC4=C[C@@H](OC1=O)C23 (some centres unmarked)	0.084 µg/mL
CCN(CC)CCCC(C)Nc1ccnc2cc(Cl)ccc12 (centres unmarked) [chloroquine, reference compound]	0.1 µg/mL

Field: next compound
### Prompt Tell me the measured IC50 of C[C@]12CC[C@@H](O)[C@]3(C)C(=O)O[C@@H](C13)[C@H]1O[C@]13COC(=O)C=C32 (some centres unmarked) , please.
### Response > 4.76 µg/mL
